System: MDA-MB-435 melanoma
Test: NCI-60 one-dose screen, 48 h
Details: 10 µM unless noted
Protocol: Growth inhibition of the MDA-MB-435 human Melanoma tumor cell line is measured as a screen for anti-cancer activity. Cells are grown in 96 well plates and exposed to the test compound for 48 hours. Compounds are tested at a single concentration, which is 10^-5 M for most compounds. The reported endpoint is percent growth (GI% or GIPRCNT), where numbers from 0 - 100% represent growth inhibition, and numbers from -100% - 0 represent cell death. […]
The panel holds about 83,000 compounds, 20% with a hit somewhere; the sample as a whole holds those more often. Active and inactive are the calls of the source. How the source made its calls: active means growth percent below 10; inactive means the rest.
# valid calls are yes for active, no for inactive; nothing else

A selection of reference data follows.
Exercise: Could you kindly confirm the outcome this assay logged for C=C(C(N)=O)C(N)C(=O)O (stereo not drawn) ?
Solution: no

Exercise: Now try O=C1/C(=C/c2ccccn2)CCc2ccccc21 .
Solution: no

Exercise: Now try O=C1C=CC(O)=CC1=P(c1ccccc1)(c1ccccc1)c1ccccc1 .
Solution: no

Exercise: Now try Clc1ccc(Cc2nc3ccccc3s2)cc1 .
Solution: no

Exercise: Now try CCc1cnc2ccccc2c1/C=C/c1ccc(N(C)C)cc1 .
Solution: yes

Exercise: Now try CCC1C[N+]2=C(c3cc(OC)c(OC)cc3CC2)c2c1cc1n2CCc2cc(OC)c(OC)cc2-1 (stereo not drawn) .
Solution: yes

Exercise: Now try CCN(CC)CCNC(Cc1ccccc1)c1ccc(OCc2ccccc2)cc1 (stereo not drawn) .
Solution: no

Exercise: Now try CN(C)c1ccc(C(=C2C=CC(=[N+](C)C)C=C2)c2ccc(N(C)C)cc2)cc1 .
Solution: yes

Exercise: Now try CCSc1nc2ccccc2o1 .
Solution: no

Exercise: Now try Oc1cc(Cl)ccc1Cc1ccc(Cl)cc1O .
Solution: no

***
Exercise: Could you kindly confirm the outcome this assay logged for O=C1C(=O)c2cc([N+](=O)[O-])ccc2-c2ccccc21 ?
Solution: yes

Exercise: Now try COc1ccc2c(c1)c(CC(=O)O)c(C)n2C(=O)c1ccc(Cl)cc1 .
Solution: no

Exercise: Now try COc1cc(NCc2ccc3nc(N)nc(N)c3c2C)cc(OC)c1OC (tested in a mixture with another compound) .
Solution: no
